Molecular target: cellular BACE1 in CHOK1-huAPP cells
Experiment: cell-based or functional assay
observationType: IC50 (µM)
Please reply with the bare figure in µM and do not write the unit itself.

For orientation, consider the following solved cases.
| binder | IC50, µM |
| --- | --- |
| 2H8.02 (antibody, human IgG1, V domains shown, human IgG1/kappa; also called 2H8_HCvar2 + 2H8_LC) VH: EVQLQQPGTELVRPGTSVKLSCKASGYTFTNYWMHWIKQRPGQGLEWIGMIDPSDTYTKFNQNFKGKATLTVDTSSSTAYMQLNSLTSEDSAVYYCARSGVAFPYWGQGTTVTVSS VL: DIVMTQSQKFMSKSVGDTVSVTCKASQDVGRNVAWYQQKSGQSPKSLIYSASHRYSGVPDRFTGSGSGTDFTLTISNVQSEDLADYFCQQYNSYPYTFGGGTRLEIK | 0.042 |
| 2H8.31 (antibody, human IgG1, V domains shown, human IgG1/kappa; also called 2H8_HC + 2H8_LCvar6) VH: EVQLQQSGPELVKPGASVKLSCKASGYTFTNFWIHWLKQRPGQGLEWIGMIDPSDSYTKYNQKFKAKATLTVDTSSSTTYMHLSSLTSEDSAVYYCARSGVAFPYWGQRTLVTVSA VL: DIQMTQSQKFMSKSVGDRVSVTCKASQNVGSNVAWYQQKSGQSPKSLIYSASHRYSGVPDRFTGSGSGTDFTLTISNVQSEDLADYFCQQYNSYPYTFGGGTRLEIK | 0.033 |
| 2H8.05 (antibody, human IgG1, V domains shown, human IgG1/kappa; also called 2H8_HCvar5 + 2H8_LC) VH: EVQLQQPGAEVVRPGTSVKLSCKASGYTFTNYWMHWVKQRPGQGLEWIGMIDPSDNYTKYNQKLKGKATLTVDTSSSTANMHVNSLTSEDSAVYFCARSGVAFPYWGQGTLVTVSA VL: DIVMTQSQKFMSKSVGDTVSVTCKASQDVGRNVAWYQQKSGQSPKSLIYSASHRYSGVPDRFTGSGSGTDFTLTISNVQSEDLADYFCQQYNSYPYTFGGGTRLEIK | 0.044 |
| 2H8.42 (antibody, human IgG1, V domains shown, human IgG1/kappa; also called 2H8_HCvar6 + 2H8_LCvar7) VH: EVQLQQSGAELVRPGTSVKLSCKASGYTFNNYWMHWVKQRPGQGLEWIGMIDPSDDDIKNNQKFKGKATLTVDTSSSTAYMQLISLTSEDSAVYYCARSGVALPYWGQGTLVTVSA VL: DILMTQSQKFMSTSVGDRVSVTCKASQNVGRNVAWYQQISGQSPKPLIYSASHRYSGVPDRFTGSGSGTDFTLTISNVQSEDLVEFFCQQYNSYPYTFGGGTKLEIK | 0.053 |

INPUT: Fill in the blank: the reported IC50 of 2H8.32 (antibody, human IgG1, V domains shown, human IgG1/kappa; also called 2H8_HCvar2 + 2H8_LCvar6) VH: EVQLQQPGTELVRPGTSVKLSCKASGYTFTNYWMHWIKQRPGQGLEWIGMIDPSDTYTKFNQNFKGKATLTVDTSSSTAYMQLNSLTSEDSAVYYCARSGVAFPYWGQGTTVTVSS VL: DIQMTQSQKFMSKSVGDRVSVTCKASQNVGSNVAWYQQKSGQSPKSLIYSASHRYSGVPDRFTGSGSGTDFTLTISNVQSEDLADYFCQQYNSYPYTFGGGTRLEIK is ____.
OUTPUT: 0.061

INPUT: Fill in the blank: the reported IC50 of 2H8.37 (antibody, human IgG1, V domains shown, human IgG1/kappa; also called 2H8_HC + 2H8_LCvar7) VH: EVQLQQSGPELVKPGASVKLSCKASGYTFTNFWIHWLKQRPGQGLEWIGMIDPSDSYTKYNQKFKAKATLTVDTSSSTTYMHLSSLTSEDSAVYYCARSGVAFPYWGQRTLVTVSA VL: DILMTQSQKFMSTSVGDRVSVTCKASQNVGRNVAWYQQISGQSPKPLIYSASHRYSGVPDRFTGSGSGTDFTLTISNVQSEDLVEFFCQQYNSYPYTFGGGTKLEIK is ____.
OUTPUT: 0.032
